- Experimental protocol: Anorectic activities of stereoisomers: 3-day food consumption and body weight gain in meal-fed rats
- Format: in vivo, Charles River female rats
- Condition: 1.32 mmoles/kg oral, 3 days, mean ± S.E.
Assignment: determine reported 3-Day Food Consumption for the given compounds.
# number then unit; no other words

[Q] For O=C(O)C[C@@](O)(C(=O)O)[C@H](Cl)C(=O)O [(+)-erythro-Chlorocitric acid, (+)-erythro-chlorocitric acid] , what is its reported 3-Day Food Consumption?
[A] 31.8 ± 2.3 g

[Q] For O=C(O)C[C@](O)(C(=O)O)[C@@H](Cl)C(=O)O [(-)-erythro-Chlorocitric acid, (-)-erythro-chlorocitric acid] , what is its reported 3-Day Food Consumption?
[A] 24.5 ± 1.8 g

[Q] For O=C(O)C[C@](O)(C(=O)O)[C@H](Cl)C(=O)O [(+)-threo-Chlorocitric acid, (+)-threo-chlorocitric acid] , what is its reported 3-Day Food Consumption?
[A] 26.5 ± 1.3 g

[Q] For O=C(O)C[C@@](O)(C(=O)O)[C@@H](Cl)C(=O)O [(-)-threo-Chlorocitric acid, (-)-threo-chlorocitric acid] , what is its reported 3-Day Food Consumption?
[A] 10.5 ± 1.3 g
